Give solubility (g/100 g solution) for every item shown.
# Test protocol: xn = mol fraction of the nth substance listed, in the solute-free solvent
# Test parameters: 323.15 K; x2 = 0.2
Give only the figure.

Query: Determine its reported solubility (g/100 g solution): NC(=O)NC1NC(=O)NC1=O (stereo unspecified) + O + CO
Result: 0.264

Query: Determine its reported solubility (g/100 g solution): CCOc1ccccc1C(N)=O + CC#N + CC(C)O
Result: 15.5

Query: Determine its reported solubility (g/100 g solution): CCOc1ccccc1C(N)=O + CC#N + CCO
Result: 19.8

Query: Determine its reported solubility (g/100 g solution): CCOc1ccccc1C(N)=O + CO + CC#N
Result: 21

Query: Determine its reported solubility (g/100 g solution): Cc1c(Br)c(=O)n(C2CCCC2)c2nc(Cl)ncc12 + CC1=CC(=O)CC(C)(C)C1 + CC(C)O
Result: 2.42

Query: Determine its reported solubility (g/100 g solution): Cl.NC(Cc1ccccc1)C(=O)OCc1ccccc1 (stereo unspecified) + CO + CC(C)=O
Result: 1.3

Query: Determine its reported solubility (g/100 g solution): N#CCNC(=O)c1cnccc1C(F)(F)F + CCOC(C)=O + CCO
Result: 16.2

Query: Determine its reported solubility (g/100 g solution): Cl.N=C(N)NC(=N)N1CCOCC1 + O + CC(C)O
Result: 2.09

Query: Determine its reported solubility (g/100 g solution): Cc1c(Br)c(=O)n(C2CCCC2)c2nc(Cl)ncc12 + C1CCOC1 + CCO
Result: 4.74

Query: Determine its reported solubility (g/100 g solution): Cc1c(Br)c(=O)n(C2CCCC2)c2nc(Cl)ncc12 + CCOC(C)=O + CCO
Result: 0.987

Query: Determine its reported solubility (g/100 g solution): O=C(NC(C(=O)O)c1ccccc1)OCc1ccccc1 (stereo unspecified) + CCO + O
Result: 3.17
